Species: Homo sapiens
protocol: Fraction absorbed in human
measurement.context: in vivo
Please go through the items and note down their Fa.
// no unit, no text: just the number

Query: Can you look up the measured Fa of CCCCc1oc2ccccc2c1C(=O)c1cc(I)c(OCCN(CC)CC)c(I)c1 for me?
Response: 1

Query: Can you look up the measured Fa of Nc1ccc(S(=O)(=O)Nc2ncccn2)cc1 for me?
Response: 0.85

Query: Can you look up the measured Fa of COc1cc(Cc2cnc(N)nc2N)cc(OC)c1OC for me?
Response: 0.97

Query: Can you look up the measured Fa of Clc1ccc2nsnc2c1NC1=NCCN1 for me?
Response: 1

Query: Can you look up the measured Fa of CNCCC=C1c2ccccc2CCc2ccccc21 for me?
Response: 1

Query: Can you look up the measured Fa of CC(C)NCC(O)COc1ccc(CCOCC2CC2)cc1 (centres undefined) for me?
Response: 1

Query: Can you look up the measured Fa of CN1C(C(=O)Nc2ccccn2)=C(O)c2sccc2S1(=O)=O for me?
Response: 1

Query: Can you look up the measured Fa of CN1[C@@H]2CC[C@H]1C[C@@H](OC(=O)C(CO)c1ccccc1)C2 (some centres undefined) for me?
Response: 0.98

Query: Can you look up the measured Fa of CN/C(=N/CCSCc1nc[nH]c1C)NC#N for me?
Response: 0.68

Query: Can you look up the measured Fa of CCc1cccc2cc(C(O)CNC(C)(C)C)oc12 (centres undefined) for me?
Response: 1

Query: Can you look up the measured Fa of Cc1cc(NS(=O)(=O)c2ccc(N)cc2)no1 for me?
Response: 1

Query: Can you look up the measured Fa of CN1CCC[C@H]1c1cccnc1 for me?
Response: 1

Query: Can you look up the measured Fa of O=C(O)c1cn(C2CC2)c2cc(N3CCNCC3)c(F)cc2c1=O for me?
Response: 0.75

Query: Can you look up the measured Fa of O=P1(N(CCCl)CCCl)NCCCO1 (centres undefined) [CYCLOPHOSPHAMIDE ANHYDROUS] for me?
Response: 0.9
